test system: Escherichia coli β7343 Δdeo tdk cdd::Tn10 (dckH D133E R104Q, amkG wt); assay: microbe, parasite or virus in culture; assay type: cell-based; settings: strain β7343, dckH D133E R104Q, amkG wt
Documented minimum inhibitory concentration (MIC) across a set of molecules

Recall the reported minimum inhibitory concentration (MIC) of Nc1ncc2ncn([C@H]3C[C@H](O)[C@@H](CO)O3)c2n1 [disoA] on Escherichia coli β7343 Δdeo tdk cdd::Tn10 (dckH D133E R104Q, amkG wt) and write it down.
1280 µM

Recall the reported minimum inhibitory concentration (MIC) of O=c1[nH]cnc2c1ncn2[C@H]1C[C@H](O)[C@@H](CO)O1 [dI, 2′-deoxyinoside] on Escherichia coli β7343 Δdeo tdk cdd::Tn10 (dckH D133E R104Q, amkG wt) and write it down.
1280 µM

Recall the reported minimum inhibitory concentration (MIC) of NNc1ccn([C@H]2C[C@H](O)[C@@H](CO)O2)c(=O)n1 [amino-dC, N4-amino-2′-deoxycitidine] on Escherichia coli β7343 Δdeo tdk cdd::Tn10 (dckH D133E R104Q, amkG wt) and write it down.
80 µM
